I'd be grateful if you could share measured IC50 for these entries.
molecular target: 11β-HSD1 (Homo sapiens); construct: expressed in transfected cells; host or cells: HEK-293 (transient, Ca2+-phosphate precipitation); test: 11β-HSD1 dehydrogenase activity (oxidation of cortisol) in lysates of HEK-293 cells expressing recombinant enzyme, competition by 7-oxygenated neurosteroids; assay type: biochemical; settings: HEK-293 lysates; 50 nM [3H]-cortisol, 500 µM cofactor NAD+; mean±S.D., four experiments
Sequence (P28845 whole entry): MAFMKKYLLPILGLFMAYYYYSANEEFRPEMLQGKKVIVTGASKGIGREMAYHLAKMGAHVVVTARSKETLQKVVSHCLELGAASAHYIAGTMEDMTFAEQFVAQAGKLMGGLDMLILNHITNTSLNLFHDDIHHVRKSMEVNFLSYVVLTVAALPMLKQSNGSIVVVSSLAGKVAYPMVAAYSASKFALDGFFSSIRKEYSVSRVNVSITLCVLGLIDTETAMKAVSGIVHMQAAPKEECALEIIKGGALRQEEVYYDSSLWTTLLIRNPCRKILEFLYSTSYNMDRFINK
Write the value in µM as a bare number.

### Prompt Write down the reported IC50 of CC(=O)[C@H]1CC[C@H]2[C@@H]3C(=O)C=C4C[C@@H](O)CC[C@]4(C)[C@H]3CC[C@]12C , test system: 11β-HSD1 (Homo sapiens).
### Response 5.4

### Prompt Write down the reported IC50 of C[C@]12CC[C@H](O)C[C@@H]1CC(=O)[C@@H]1[C@@H]2CC[C@]2(C)C(=O)CC[C@@H]12 , test system: 11β-HSD1 (Homo sapiens).
### Response 18

### Prompt Write down the reported IC50 of C[C@]12CC[C@H](O)CC1=C[C@@H](O)[C@@H]1[C@@H]2CC[C@]2(C)C(=O)CC[C@@H]12 [7α-hydroxydehydroepiandrosterone] , test system: 11β-HSD1 (Homo sapiens).
### Response 16

### Prompt Write down the reported IC50 of C[C@]12CC[C@H](O)CC1=C[C@H](O)[C@@H]1[C@@H]2CC[C@]2(C)C(=O)CC[C@@H]12 [7β-hydroxydehydroepiandrosterone] , test system: 11β-HSD1 (Homo sapiens).
### Response 0.54

### Prompt Write down the reported IC50 of CC(=O)[C@H]1CC[C@H]2[C@@H]3[C@@H](O)C=C4C[C@@H](O)CC[C@]4(C)[C@H]3CC[C@]12C [7β-hydroxypregnenolone] , test system: 11β-HSD1 (Homo sapiens).
### Response 1.34

### Prompt Write down the reported IC50 of C[C@]12CC[C@H](O)CC1=CC(=O)[C@@H]1[C@@H]2CC[C@]2(C)C(=O)CC[C@@H]12 [7-ketodehydroepiandrosterone] , test system: 11β-HSD1 (Homo sapiens).
### Response 29
